measured.on: recombinant human AChE (Homo sapiens, UniProt P22303)
Construct: gift of Dr Florian Nachon, Armed Forces Biomedical Research Institute, Brétigny-sur-Orge, France
Sequence (P22303 32-614): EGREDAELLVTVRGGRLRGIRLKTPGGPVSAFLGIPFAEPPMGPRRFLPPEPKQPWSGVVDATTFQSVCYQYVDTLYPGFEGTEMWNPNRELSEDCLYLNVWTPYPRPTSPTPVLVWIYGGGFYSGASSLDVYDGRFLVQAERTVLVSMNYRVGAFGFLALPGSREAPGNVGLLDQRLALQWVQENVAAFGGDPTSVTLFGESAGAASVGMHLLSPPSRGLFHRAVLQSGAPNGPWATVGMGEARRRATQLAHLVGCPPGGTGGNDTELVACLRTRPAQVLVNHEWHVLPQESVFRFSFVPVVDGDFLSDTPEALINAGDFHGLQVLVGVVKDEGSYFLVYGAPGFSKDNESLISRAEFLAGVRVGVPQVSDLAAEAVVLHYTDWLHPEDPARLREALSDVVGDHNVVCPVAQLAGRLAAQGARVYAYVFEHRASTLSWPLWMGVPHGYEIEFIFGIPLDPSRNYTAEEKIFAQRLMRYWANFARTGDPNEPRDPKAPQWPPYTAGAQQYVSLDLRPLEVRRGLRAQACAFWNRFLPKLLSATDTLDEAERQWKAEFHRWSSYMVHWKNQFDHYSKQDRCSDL
method: Inhibition of human AChE (Ellman method, Hunter–Downs Ki)
experimental.setup: human AChE; Ki ± SE, at least three experiments; ATCh substrate
measurement.label: Ki (nM)
Value expressed in nM; do not type the unit.

Some solved entries appear below for comparison.
> print(dat)
                                   molecule  unit.tag  value.reported
1  CCN(CC)Cc1cc(Nc2ccnc3c(C(F)(F)F)cccc23)ccc1O        nM            1200
2  CCN(CC)Cc1cc(Nc2ccnc3ccc(C(F)(F)F)cc23)ccc1O        nM              93
3  CCN(CC)Cc1cc(Nc2ccnc3cc([N+](=O)[O-])ccc23)ccc1O        nM              84
4   CCN(CC)Cc1cc(Nc2ccnc3ccc(C#N)cc23)ccc1O        nM             190
5  CCN(CC)Cc1cc(Nc2ccnc3cc(Cl)ccc23)ccc1O [AMQ, Amodiaquine, reference compound]        nM              46
6  CCN(CC)Cc1cc(Nc2ccnc3cccc(C(=O)O)c23)ccc1O        nM            1300

Reported Ki ( CCN(CC)Cc1cc(Nc2ccnc3cc(OC)ccc23)ccc1O ) = 25

Reported Ki ( CCN(CC)Cc1cc(Nc2ccnc3c(F)cccc23)ccc1O ) = 510

Reported Ki ( CCN(CCO)Cc1cc(Nc2ccnc3cc(Cl)ccc23)ccc1O ) = 110
